assay: Biodistribution in ddY mice; assay type: in vivo; conditions: i.v. co-injection, 4 h
Marks after values point to notes of the source that are not given here.
The following molecules are shown together with reported Radioactivity in Blood values.

Requested field: Radioactivity in Blood. Item: COCCOc1ccc2c(c1)ncn2-c1ccc2c([77Br])ccc(N3CCC(N)CC3)c2n1 [[^77Br]2]
0.20 (0.03) %injected dose/gram tissue

One more molecule: COCCOc1ccc2c(c1)ncn2-c1ccc2c([125I])ccc(N3CCC(N)CC3)c2n1 [[^125I]4, reference compound]
0.19 (0.05) %injected dose/gram tissue

Lab note: next molecule to report on.
Fill in: Radioactivity in Blood of COCCOc1ccc2c(c1)ncn2-c1ccc2cccc(N3CCC(NC(=O)c4cccc([77Br])c4)CC3)c2n1 [[^77Br]3] is ___
0.25 (0.04) %injected dose/gram tissue
